I'd appreciate it if you could supply IC50 values for the items below.
Target: Kir4.1 (Homo sapiens, UniProt P78508)
Construct: expressed in transfected cells
Sequence (P78508 1-379): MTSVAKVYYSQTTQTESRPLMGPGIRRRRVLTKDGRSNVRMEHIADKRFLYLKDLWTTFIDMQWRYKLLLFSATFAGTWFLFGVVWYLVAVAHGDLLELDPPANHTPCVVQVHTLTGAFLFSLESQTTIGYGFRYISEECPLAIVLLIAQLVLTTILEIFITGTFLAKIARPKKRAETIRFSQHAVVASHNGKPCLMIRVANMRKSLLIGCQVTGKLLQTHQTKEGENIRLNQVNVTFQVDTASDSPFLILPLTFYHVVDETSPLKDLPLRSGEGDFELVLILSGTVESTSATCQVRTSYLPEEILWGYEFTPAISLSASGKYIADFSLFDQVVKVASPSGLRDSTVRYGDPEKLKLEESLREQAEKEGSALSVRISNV
Assay: Kir family selectivity thallium flux assay
Assay type: cell-based

Data request: So what does the record say about IC50 for O=C(NCC(O)(c1ccccc1)C(F)(F)F)c1ccc(OC(F)(F)F)cc1 (stereo not shown) [VU0543336] ?
Data returned: > 30 µM

Data request: Name the recorded IC50 for c1ccc2[nH]c(CSc3ncnc4c3oc3ccccc34)nc2c1 [VU0212387] .
Data returned: > 30 µM

Data request: Recorded IC50 of O=C(NCc1cc(-c2ccncc2)n(C2CCCC2)n1)Nc1cccs1 [VU0544086] , please.
Data returned: > 30 µM

Data request: Need IC50 of O=C1c2oc3ccccc3c(=O)c2C(c2cccc(Br)c2)N1CCO (stereo not shown) [VU0605768] , thanks.
Data returned: > 30 µM

----------
Give measured IC50 for each item. Keep answers brief.
target: Kir4.2 (Homo sapiens, UniProt Q99712); construct: expressed in transfected cells; experiment: Kir family selectivity thallium flux assay; format: cell-based; conditions: thallium flux
Sequence (Q99712 whole entry): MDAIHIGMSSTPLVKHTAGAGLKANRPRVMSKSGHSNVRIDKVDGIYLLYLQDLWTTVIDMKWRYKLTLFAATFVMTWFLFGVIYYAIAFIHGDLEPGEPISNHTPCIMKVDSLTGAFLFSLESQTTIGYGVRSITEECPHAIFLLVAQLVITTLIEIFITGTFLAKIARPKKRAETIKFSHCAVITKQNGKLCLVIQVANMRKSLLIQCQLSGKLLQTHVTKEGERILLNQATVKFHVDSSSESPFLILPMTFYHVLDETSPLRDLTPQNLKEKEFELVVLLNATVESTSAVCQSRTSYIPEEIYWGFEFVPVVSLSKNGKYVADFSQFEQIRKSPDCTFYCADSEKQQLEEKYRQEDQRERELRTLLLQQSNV

Data request: Name the recorded IC50 for O=C(NCc1cc(-c2ccncc2)n(C2CCCC2)n1)Nc1cccs1 [VU0544086] .
Data returned: > 30 µM

Data request: State the recorded IC50 for this entry: O=C1c2oc3ccccc3c(=O)c2C(c2cccc(Br)c2)N1CCO (centres unmarked) [VU0605768]
Data returned: > 30 µM
